Where do these numbers come from? They come from paper PMC9482650.

# TARGET OR SYSTEM: MAST1, Q9Y2H9
# Sequence (Q9Y2H9 962-1065): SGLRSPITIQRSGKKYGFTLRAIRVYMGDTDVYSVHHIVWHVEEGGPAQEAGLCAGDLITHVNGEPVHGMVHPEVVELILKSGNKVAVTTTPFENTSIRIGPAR
# ASSAY METHOD TEXT: holdup assay
# Parameters: key: below the threshold = too weak to quantify, mostly under pKd 3.1 to 4
# APPLIED CONDITIONS: plain residues with an end cap or a label only (N-terminal biotin on a linker: ado-ado)
Please go through the items and note down their pKd.
Numbers only.

Solved entries (count: 5):
binder="HYPASPDSWV [CTNND2, Q9UQB3]" recorded_number=3.9
binder="PLATCDETSI [SEMA4F, O95754]" recorded_number=4.64
binder="QLKSGRDSTV [TMEM178A, Q8NBL3]" recorded_number=4.02
binder="TFSRRPKTRV [CD226, Q15762]" recorded_number=4.24
binder="ADEMICITTL [CACNA1D, Q01668]" recorded_number=5.06

Go through the items and report each one's pKd.
1. THHRKIHTRV [ZNF599, Q96NL3]
2. KLQNPNQSVV [TYRP1, P17643]
3. HLSTRQGTCV [ATRNL1, Q5VV63]
4. TKDKVQETQI [LRRC4, Q9HBW1]
5. EKPIDSETKM [SLC1A3, P43003]
6. SSSVNVSSNL [CXCR1, P25024]
7. DLLGGGSDSI [TNRC6B, Q9UPQ9]
8. KIEDVEITLV [FCHSD2, O94868]

Solution:
[4.48, 4.37, 4.35, 4.28, 4.67, 4.45, 3.85, 4.16]
